molecular target: hAT1R (Homo sapiens, UniProt P30556); assay: BRET β-arrestin2 biosensor assay, higher receptor expression (hAT1R 5 ng/well), HEK293 cells; format: cell-based
outcome measure: BRET β-Arrestin2 High AT1R Expression Ymax (%)
A complete answer gives the number and then names the unit.

Answered examples (3):
> print(dat)
                                        smi  result.value
1  CCc1nc2c(C)cc(C)nc2n1Cc1ccc(-c2cc(-c3cncc(C)c3)ccc2-c2nn[nH]n2)cc1         85.8%
2  CCc1nc2c(C)cc(C)nc2n1Cc1ccc(-c2cc(-c3ccccc3)ccc2-c2noc(=S)[nH]2)cc1         85.8%
3  CCCCC1=NC2(CCCC2)C(=O)N1Cc1ccc(-c2cc(-c3cccnc3)ccc2-c2nn[nH]n2)cc1         15.1%

Note: attention shifts to another entry.
Item under review: `CCc1nc2c(C)cc(C)nc2n1Cc1ccc(-c2cc(-c3cn(CCO)nn3)ccc2-c2nnn[nH]2)cc1` . Reported BRET β-Arrestin2 High AT1R Expression Ymax (%)?
89.5%

====

Would you mind telling me the reported EC50 of each entry?
target: hAT1R (Homo sapiens, UniProt P30556); experiment: cell-based; conditions: section of the 42nd table ending at r951, example numbering restarts after the DiscoveRx section; read-out: β-arrestin2 EC50
Write the numeric value and follow it with the unit.

Working through the 4 molecules below one at a time, give EC50 for each.
1. CCC1=NC2(CCOC2)C(=O)N1Cc1ccc(-c2cc(-c3ccccc3)ccc2-c2nn[nH]n2)cc1 (single isomer, unassigned) [Example 165]
2. CCc1nc2c(C)cc(C)nc2n1Cc1ccc(-c2cc(-c3cn(C)nn3)ccc2-c2nnn[nH]2)cc1 [Example 243]
3. CCOc1nc2cccc(C(=O)O)c2n1Cc1ccc(-c2cc(-n3cnc4ccccc43)ccc2-c2nn[nH]n2)cc1 [Example 339]
4. CCc1nc2c(C)cc(C)nc2n1Cc1ccc(-c2cc(-n3nnc4ccccc43)ccc2-c2nnn[nH]2)cc1 [Example 233]

1. 281 nM
2. 71.5 nM
3. 12.8 nM
4. 9.7 nM

====

target: AGTR1 (Homo sapiens); construct: host or cells: Pathunter CHO-K1 AGTR1 β-arrestin cell line (CHO-K1); assay: DiscoveRx IP1 accumulation assay (HTRF), agonist mode, Pathunter CHO-K1 AGTR1 β-arrestin cell line; format: cell-based; details: read-out: IP-1 EC50
outcome measure: EC50 (µM)
Answers are plain numbers, in µM.

> print(dat)
                                   compound  result.value
1  CCc1nc2c(C)cc(C)nc2n1Cc1ncc(-c2cc(-c3cccc(C)c3)ccc2-c2nnn[nH]2)cn1         0.173
2  CCc1nc2c(C)cc(C)nc2n1Cc1ccc(-c2cc(-c3ccc(F)cc3F)ccc2-c2nn[nH]n2)cc1        0.0105
3  CCc1nc2c(C)cc(C)nc2n1Cc1ccc(-c2cc(Oc3cc(N)ccn3)ccc2-c2nn[nH]n2)cc1        0.0705
4  CCc1nc2c(C)cc(C)nc2n1Cc1ccc(-c2cc(-c3cccnc3OC)ccc2-c2nn[nH]n2)cc1        0.0207
5  CCc1nc2c(C)cc(C)nc2n1Cc1ccc(-c2cc(-n3cccn3)ccc2-c2nn[nH]n2)cc1        0.0408

Please give EC50 for each item listed below.
1. CCCC1=NC2(CCOC2)C(=O)N1Cc1ccc(-c2cc(-c3ccccc3)ccc2-c2nn[nH]n2)cc1 (single isomer, unassigned)
2. CCc1nc2c(C)cc(C)nc2n1Cc1ccc(-c2cc(-c3ccccc3C)ccc2-c2nn[nH]n2)cc1
3. CCCCC1=NC2(CCCC2)C(=O)N1Cc1ccc(-c2cc(-c3ccsc3)ccc2-c2nn[nH]n2)cc1
4. CCCCn1cc(-c2ccc(-c3nnn[nH]3)c(-c3ccc(Cn4c(CC)nc5c(C)cc(C)nc54)cc3)c2)nn1
5. CCc1nc2c(C)cc(C)nc2n1Cc1ccc(-c2cc(Oc3ncccc3F)ccc2-c2nn[nH]n2)cc1

0.214
0.0718
0.108
0.15
0.133

Okay, here is my list. What is EC50 for each of these?
1. CCc1nc2c(C)cc(C)nc2n1Cc1ccc(-c2cc(N3CCC4(CCOC4)C3)ccc2-c2nn[nH]n2)cc1 (stereo not shown)
2. CCc1nc2c(C)cc(C)nc2n1Cc1ccc(-c2cc(-c3cc(C)cc(C)n3)ccc2C(=O)O)cc1

1. 1.4
2. 0.214

Hey, quick one: what's EC50 for each of these?
1. CCc1nc2c(C)cc(C)nc2n1Cc1ccc(-c2cc(-c3cncn3C)ccc2-c2nn[nH]n2)cc1
2. CCc1nc2c(C)cc(C)nc2n1Cc1ccc(-c2cc(N3CCC(F)(F)C3)ccc2-c2nn[nH]n2)cc1
3. CCCCC1=NC2(CCOC2)C(=O)N1Cc1ccc(-c2cc(-c3ccccc3O)ccc2-c2nnn[nH]2)cc1 (single isomer, unassigned) [Example 151]
4. CCc1nc2c(C)cc(C)nc2n1Cc1ccc(-c2cc(-c3cccc(C)n3)ccc2-c2nn[nH]n2)cc1
5. CCc1nc2c(C)cc(C)nc2n1Cc1ccc(-c2cc(-c3ccc4c(ccn4C)c3)ccc2-c2nn[nH]n2)cc1
6. CCc1nc2c(C)cc(C)nc2n1Cc1ccc(-c2cc(-n3ccc(C)n3)ccc2-c2nnn[nH]2)cc1
7. CCc1nc2c(C)cc(C)nc2n1Cc1ccc(-c2cc(-c3ccccn3)ccc2C(=O)O)cc1
8. CCc1nc2c(C)cc(C)nc2n1Cc1ccc(-c2cc(-c3ccccc3)ccc2-c2noc(=S)[nH]2)cc1

1: 0.427; 2: 0.0921; 3: 0.607; 4: 0.0219; 5: 0.0087; 6: 0.0333; 7: 0.223; 8: 0.092

For every record below, what is its EC50?
1. CCC1=NC2(CCCC2)C(=O)N1Cc1ccc(-c2cc(-c3cc(C)ccn3)ccc2-c2nn[nH]n2)cc1
2. CCc1nc2c(C)cc(C)nc2n1Cc1ccc(-c2cc(-c3ccccc3)ccc2-c2nnn[nH]2)nc1

0.0835
0.0489

====

biological target: hAT1R (Homo sapiens, UniProt P30556); assay: cell-based; settings: agonist mode; read-out: BRET P63 EC50
Assignment: determine reported EC50 for the given compounds.
Numbers only, in nM.

// known answers, use as guide
> print(dat)
                                   compound  result.value
1  CCCCC1=NC2(CCOC2)C(=O)N1Cc1ccc(-c2cc(-c3ccccc3O)ccc2-c2nnn[nH]2)cc1 (single isomer, unassigned) [Example 150]           105
2  CCc1nc2c(C)cc(C)nc2n1Cc1ccc(-c2cc(-n3ncc4ccccc43)ccc2-c2nnn[nH]2)cc1             4

Please examine the following record next.
Could you share which EC50 value was measured for `CCc1nc2c(C)cc(C)nc2n1Cc1ccc(-c2cc(-n3cc(C4CC4)nn3)ccc2-c2nnn[nH]2)cc1` ?
29.5

====

Target: AGTR1 (Homo sapiens)
Construct: host or cells: Pathunter CHO-K1 AGTR1 β-arrestin cell line (CHO-K1)
Sequence (P30556 1-359): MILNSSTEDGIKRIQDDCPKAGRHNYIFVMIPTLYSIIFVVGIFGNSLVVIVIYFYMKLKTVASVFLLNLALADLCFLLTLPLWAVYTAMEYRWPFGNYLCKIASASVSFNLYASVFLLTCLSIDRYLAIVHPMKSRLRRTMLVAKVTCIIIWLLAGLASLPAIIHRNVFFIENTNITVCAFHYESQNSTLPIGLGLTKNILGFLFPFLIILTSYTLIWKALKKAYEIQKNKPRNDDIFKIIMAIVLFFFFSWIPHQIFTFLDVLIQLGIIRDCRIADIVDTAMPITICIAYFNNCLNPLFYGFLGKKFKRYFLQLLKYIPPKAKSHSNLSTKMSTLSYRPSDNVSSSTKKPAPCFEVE
Test: DiscoveRx β-arrestin2 recruitment assay (enzyme complementation, Pathunter CHO-K1 AGTR1 β-arrestin cell line)
Type: cell-based
Conditions: DiscoveRx β-arrestin2 recruitment, maximal response
Give condition met when the value for DiscoveRx β-arrestin2 Ymax (%) is at least 30%. Give condition not met when it is less.

// below: answered compounds
> print(dat)
                                   compound        label.value
1  CCCCc1nc(Cl)c(C(=O)O)n1Cc1ccc(-c2cc(N3CCC[C@@H](C)C3)ccc2-c2nn[nH]n2)cc1      condition met
2  CCCCn1cc(-c2ccc(-c3nnn[nH]3)c(-c3ccc(Cn4c(CC)nc5c(C)cc(C)nc54)cc3)c2)nn1      condition met
3  CCCCc1ncc(C(=O)NC)n1Cc1ccc(-c2cc(-c3ccccc3)ccc2-c2nn[nH]n2)cc1  condition not met
4  CCc1nc2c(C)cc(C)nc2n1Cc1ccc(-c2cc(-c3ccccc3C)ccc2-c2nn[nH]n2)cc1  condition not met
5  CCc1nc2c(C)cc(C)nc2n1Cc1ccc(-c2cc(-c3ccccc3)ccc2-c2nsc(=O)[nH]2)cc1      condition met

Test whether the compound CCCCC1=NC2(CCOC2)C(=O)N1Cc1ccc(-c2cc(-c3ccccc3)ccc2-c2nnn[nH]2)cc1 (single isomer, unassigned) [Example 146] records DiscoveRx β-arrestin2 Ymax (%) of 30% or higher.
condition met

Confirm if DiscoveRx β-arrestin2 Ymax (%) reported for the compound `CCCCC(=O)N(Cc1ccc(-c2cc(-c3ccccc3)ccc2-c2nn[nH]n2)nc1)C1(C(=O)O)CCCCC1` is 30% or above.
condition met

Is DiscoveRx β-arrestin2 Ymax (%) at least 30%? Consider `CCCCC(=O)N(Cc1ccc(-c2cc(-c3ccccc3)ccc2-c2nn[nH]n2)cc1)C1(C(=O)O)CCC(C)(C)CC1`
condition met

Decide: is the reported value of DiscoveRx β-arrestin2 Ymax (%) for `CCc1nc2c(C)cc(C)nc2n1Cc1ccc(-c2cc(-c3ccccc3)ccc2-c2n[nH]c(=S)o2)cc1` equal to or greater than 30%?
condition met

Threshold query (DiscoveRx β-arrestin2 Ymax (%) >= 30%) on `CCc1nc2c(C)cc(C)nc2n1Cc1ccc(-c2cc(Oc3cc(Cl)ccn3)ccc2-c2nn[nH]n2)cc1`
condition not met

Entry `CCCCC1=NC2(CCCC2)C(=O)N1Cc1ccc(-c2cc(-c3cncc(OC)c3)ccc2-c2nn[nH]n2)cc1` : is its DiscoveRx β-arrestin2 Ymax (%) no less than 30%?
condition not met

Item `CCc1nc2c(C)cc(C)nc2n1Cc1ccc(-c2cc(C(=O)c3ccccc3)ccc2-c2nnn[nH]2)cc1` with DiscoveRx β-arrestin2 Ymax (%) of 30% or above?
condition met
